These entries and their values trace back to the supplement of paper PMC10065799.

Molecular target: c-Src SH2;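 also: peptide library displayed on the E. coli surface as eCPX fusions, selected cells deep-sequenced, score is each peptide's frequency after selection divided by its frequency in the input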
Assay: SH2 binding enrichment of the phosphorylated peptide, bacterial display (enrichment ratio); higher = better substrate or ligand; peptides without Tyr show the background
PROPERTY MEASURED: SH2 binding enrichment
Give bare numbers.

Below, 4 sequences whose answers are already recorded.
DRLASYLEKVR [KRT13_Y118] = 0.423
EDASEYYENYI [PARP4_Y214_F215Y] = 0.582
QKDIFYGLRSL [IGSF10_Y126_T124I] = 0.516
PLQKIYNYNVL [SLC4A1_Y553_T552I] = 1.54

For each listed entry, give its SH2 binding enrichment.
1. ERMKVYVPIGF [EPHX1_Y393_T396I]
2. GNLLIYTEFGN [HGD_Y166_K171N]
3. INNIDYFKNTT [FGFR2_Y656_K659N_YF]
4. DRLANYLEKVR [KRT40_Y103_S102N]
5. EWLRRHLENGK [HLA-A_Y195_Y195H]
6. NRDNTYNRVSE [FGA_Y127]
7. CSRRFYQLTKL [AR_Y858]
8. KDYETYQPFQN [CTNND2_Y1157]

Result block:
[0.556, 0.462, 0.36, 0.339, 0.6, 1.59, 0.406, 0.43]

Please give SH2 binding enrichment, item by item, for the list that follows.
1. DQLVKYGVNPG [TMPO_Y127]
2. VEFAKYGSLQG [RET_Y809_R813Q_YF]
3. PMFTKYGNGLL [RPGRIP1L_Y196_S199G]
4. ISDDKYGRIRL [ARCN1_Y310]
5. PYSSPYENSLI [EPOR_Y489_N487S]

Result block:
1: 0.539; 2: 0.382; 3: 0.421; 4: 0.434; 5: 5.18

For each of the sequences below, note its SH2 binding enrichment.
1. ECIEFYELDKK [PMM2_Y145_R141C]
2. YFVVEYRNQKP [MUC17_Y4332_D4334N]
3. QYNMQYSSSAA [ERBB2IP_Y981_I979M]
4. NTDETYCIDNE [TUBB2B_Y200]
5. VKRNRYKDILP [PTPN12_Y64_K61R]

Result block:
0.805
2.83
0.603
0.544
0.483

* * *

Target: EPHB2 (UniProt P29323)
Sequence (P29323 whole entry, looked up): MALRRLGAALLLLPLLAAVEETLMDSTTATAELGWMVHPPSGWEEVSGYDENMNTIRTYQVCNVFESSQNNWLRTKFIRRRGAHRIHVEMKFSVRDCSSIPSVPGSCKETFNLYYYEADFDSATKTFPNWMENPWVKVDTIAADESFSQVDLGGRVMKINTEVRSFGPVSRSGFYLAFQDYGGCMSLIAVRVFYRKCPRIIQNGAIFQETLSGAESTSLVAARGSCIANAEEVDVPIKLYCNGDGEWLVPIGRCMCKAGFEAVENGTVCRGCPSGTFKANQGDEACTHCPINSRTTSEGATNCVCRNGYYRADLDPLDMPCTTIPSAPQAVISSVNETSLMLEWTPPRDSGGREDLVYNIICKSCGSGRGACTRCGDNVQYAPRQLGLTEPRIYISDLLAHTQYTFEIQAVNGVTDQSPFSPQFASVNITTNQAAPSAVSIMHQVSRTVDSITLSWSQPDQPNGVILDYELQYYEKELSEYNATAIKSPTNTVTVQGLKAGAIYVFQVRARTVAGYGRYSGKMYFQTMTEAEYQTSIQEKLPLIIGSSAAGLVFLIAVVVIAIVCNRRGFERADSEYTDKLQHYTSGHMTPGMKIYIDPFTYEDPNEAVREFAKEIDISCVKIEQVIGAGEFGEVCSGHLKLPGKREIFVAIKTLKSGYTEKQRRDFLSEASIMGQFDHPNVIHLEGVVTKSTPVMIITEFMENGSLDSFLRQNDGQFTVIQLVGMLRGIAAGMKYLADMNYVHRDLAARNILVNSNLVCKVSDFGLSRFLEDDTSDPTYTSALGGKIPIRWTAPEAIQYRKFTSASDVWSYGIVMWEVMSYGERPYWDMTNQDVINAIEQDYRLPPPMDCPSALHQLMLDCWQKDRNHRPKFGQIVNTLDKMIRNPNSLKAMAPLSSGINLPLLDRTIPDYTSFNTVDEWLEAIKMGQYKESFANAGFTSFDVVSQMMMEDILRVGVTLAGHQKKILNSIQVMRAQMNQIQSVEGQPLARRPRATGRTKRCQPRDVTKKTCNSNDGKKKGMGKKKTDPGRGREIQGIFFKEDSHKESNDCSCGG
Assay: phosphorylation enrichment, bacterial display (enrichment ratio); higher = better substrate or ligand; peptides without Tyr show the background
PROPERTY MEASURED: phosphorylation enrichment
Numbers only.

Solved entries (count: 6):
CPTIHYNYMCN [TP53_Y234_T230P] = 0.607
RVEDACILTCN [CCT6A_Y229_Y229C] = 0.688
QGIPRYHSQSP [FOXF1_Y331] = 0.849
RGERPYGGGGG [FUS_Y526_R522G] = 0.418
RDLEQYVNNVN [PCDH19_Y1097] = 0.625
GIFKDYFRFNF [PLA2G2D_Y85_S80G_YF] = 0.47

Go through the items and report each one's phosphorylation enrichment.
1. CGTPTYLAPEV [CHEK2_Y390]
2. NTPNAYLRVNV [ADD2_Y440_T439A]
3. FLENFYDLEKD [MMP3_Y42_K45E_YF]
4. KHTLSFVDVGT [SDHA_Y629_Y629F]
5. ADYYDYGHGLS [KHDRBS3_Y304]
6. GMEIVYVFVKK [DNAI2_Y5_YF]
7. CTTIHYDYMCN [TP53_Y234_N235D]
8. MRAIIYNSSTA [PLEKHA7_Y243_L241I]

Result block:
1.39
0.465
0.546
0.495
20.5
0.654
0.723
0.609
